- study.system: T1, orthogonal hCD122 receptor (hoRb), hCD122 with H133D and Y134F (human, UniProt P14784 27-550)
- T1 sequence: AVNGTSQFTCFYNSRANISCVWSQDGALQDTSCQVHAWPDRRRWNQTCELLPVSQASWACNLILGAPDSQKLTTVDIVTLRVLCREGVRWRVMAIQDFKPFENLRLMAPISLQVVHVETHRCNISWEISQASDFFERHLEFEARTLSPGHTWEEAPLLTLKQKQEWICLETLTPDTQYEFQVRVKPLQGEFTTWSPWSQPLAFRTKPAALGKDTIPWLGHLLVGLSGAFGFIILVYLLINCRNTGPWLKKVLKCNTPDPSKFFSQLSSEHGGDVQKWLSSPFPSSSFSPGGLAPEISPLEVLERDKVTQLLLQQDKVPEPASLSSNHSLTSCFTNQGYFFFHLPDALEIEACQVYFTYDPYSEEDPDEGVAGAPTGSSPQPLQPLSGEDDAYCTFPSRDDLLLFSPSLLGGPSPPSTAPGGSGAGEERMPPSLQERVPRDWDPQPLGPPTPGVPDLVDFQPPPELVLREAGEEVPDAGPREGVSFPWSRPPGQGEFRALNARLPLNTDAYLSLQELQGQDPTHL
- measurement.protocol: cell-based or functional assay
observed.property: 3F8 Ortho Proliferation Signal 1:10 (cts/min)

# binder, uom, val
records = [
    ("Q126S, SQVLKA (ligand) APTSSSTKKTQLQLSQLLVLLKAILNGINNYKNPKLTRMLTFKFYMPKKATELKHLQCLEEELKPLEEVLNLAQSKNFHLRPRDLISNINVIVLELKGSETTFMCEYADETATIVEFLNRWITFCSSIISTLT", "cts/min", 2870),
    ("ΔT7, SQVLKA (ligand) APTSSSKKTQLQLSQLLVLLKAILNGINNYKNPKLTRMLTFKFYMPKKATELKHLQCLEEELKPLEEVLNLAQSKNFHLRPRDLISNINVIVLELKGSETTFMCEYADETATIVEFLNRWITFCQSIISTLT", "cts/min", 29200),
    ("SQVLEA (ligand) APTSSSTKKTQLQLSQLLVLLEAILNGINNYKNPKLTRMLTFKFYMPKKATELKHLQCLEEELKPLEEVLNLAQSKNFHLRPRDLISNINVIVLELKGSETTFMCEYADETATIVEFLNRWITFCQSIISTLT", "cts/min", 31600),
    ("SQVLDA (ligand) APTSSSTKKTQLQLSQLLVLLDAILNGINNYKNPKLTRMLTFKFYMPKKATELKHLQCLEEELKPLEEVLNLAQSKNFHLRPRDLISNINVIVLELKGSETTFMCEYADETATIVEFLNRWITFCQSIISTLT", "cts/min", 32300),
    ("T3A, SQVLKA (ligand) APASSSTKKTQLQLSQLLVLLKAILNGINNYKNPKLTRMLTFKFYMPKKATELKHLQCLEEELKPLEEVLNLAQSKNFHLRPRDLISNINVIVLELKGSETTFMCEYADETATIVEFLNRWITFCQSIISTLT", "cts/min", 39300),
    ("ΔT51, SQVLKA (ligand) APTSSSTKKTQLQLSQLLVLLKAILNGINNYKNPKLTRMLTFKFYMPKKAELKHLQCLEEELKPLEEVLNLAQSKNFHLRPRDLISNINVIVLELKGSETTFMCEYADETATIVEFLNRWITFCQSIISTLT", "cts/min", 7070),
    ("I86V, SQVLKA (ligand) APTSSSTKKTQLQLSQLLVLLKAILNGINNYKNPKLTRMLTFKFYMPKKATELKHLQCLEEELKPLEEVLNLAQSKNFHLRPRDLVSNINVIVLELKGSETTFMCEYADETATIVEFLNRWITFCQSIISTLT", "cts/min", 32600),
    ("I92F, SQVLKA (ligand) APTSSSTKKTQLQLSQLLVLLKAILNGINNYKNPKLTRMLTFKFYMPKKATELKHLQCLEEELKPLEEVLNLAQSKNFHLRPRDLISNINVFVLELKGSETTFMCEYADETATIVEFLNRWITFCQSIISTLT", "cts/min", 36300),
    ("L18T, SQVLKA (ligand) APTSSSTKKTQLQLSQLTVLLKAILNGINNYKNPKLTRMLTFKFYMPKKATELKHLQCLEEELKPLEEVLNLAQSKNFHLRPRDLISNINVIVLELKGSETTFMCEYADETATIVEFLNRWITFCQSIISTLT", "cts/min", 51800),
    ("F42K, SQVLKA (ligand) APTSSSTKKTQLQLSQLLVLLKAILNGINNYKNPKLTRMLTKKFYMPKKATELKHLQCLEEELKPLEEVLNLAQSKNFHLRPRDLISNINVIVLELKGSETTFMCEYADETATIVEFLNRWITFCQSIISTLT", "cts/min", 5760),
]

A: SQVLKQ (ligand) APTSSSTKKTQLQLSQLLVLLKQILNGINNYKNPKLTRMLTFKFYMPKKATELKHLQCLEEELKPLEEVLNLAQSKNFHLRPRDLISNINVIVLELKGSETTFMCEYADETATIVEFLNRWITFCQSIISTLT
B: SQVLRA (ligand) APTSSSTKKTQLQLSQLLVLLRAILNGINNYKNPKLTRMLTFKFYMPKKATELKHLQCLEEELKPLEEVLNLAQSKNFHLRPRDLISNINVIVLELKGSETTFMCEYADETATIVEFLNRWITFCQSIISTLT
Returns the identifier with the smallest measured 3F8 Ortho Proliferation Signal 1:10 among A and B . // output: label of the selected item
B
